Test system: Candida albicans
Assay: Antifungal activity against clinical isolate Candida albicans YEM15 overexpressing efflux pump CdrL and Cdr2 assessed as inhibition of fungal growth measured after 24 hrs by CLSI based microtiter plate analysis
Format: functional
Assignment: determine reported MIC80 for the given compounds.
One number for each entry, in µg/mL.

// solved cases for MIC80 follow
{"columns": ["COMPOUND", "U", "REPORTED_VALUE"],
 "data": [
  ["C=C1C[C@@]2(CC)[C@@H](CC[C@@]2(O)c2cn(CCCOc3ccc(C(=N)N)cc3)nn2)[C@@H]2CCC3=CCCC[C@@H]3[C@@H]12", "µg/mL", 64],
  ["C=C1C[C@@]23CC[C@H]4[C@@](C)(CCC[C@@]4(C)C(=O)OCCCOc4ccc(C(=N)N)cc4)[C@@H]2CC[C@]1(O)C3", "µg/mL", 8],
  ["C[C@H]1[C@H](C)CC[C@]2(C(=O)OCCCOc3ccc(C(=N)N)cc3)CC[C@]3(C)C(=CC[C@@H]4[C@@]5(C)CC[C@H](O)C(C)(C)[C@@H]5CC[C@]43C)[C@H]12", "µg/mL", 4],
  ["N=C(N)c1ccc(OCCCN2CCC(=C3c4ccc(Cl)cc4CCc4cccnc43)CC2)cc1", "µg/mL", 32],
  ["C[C@@H]1[C@H](O)[C@@H](C)/C=C/C=C/C=C/C=C/C=C/C=C/C=C/[C@H](O[C@@H]2O[C@H](C)[C@@H](O)[C@H](N)[C@@H]2O)C[C@@H]2O[C@](O)(C[C@@H](O)C[C@@H](O)[C@H](O)CC[C@@H](O)C[C@@H](O)CC(=O)O[C@H]1C)C[C@H](O)[C@H]2C(=O)O [AMPHOTERICIN B]", "µg/mL", 2]
]}

Now take the following compound into account.
Qu. Find the measured MIC80 of OC(Cn1cncn1)(Cn1cncn1)c1ccc(F)cc1F [FLUCONAZOLE] and report it.
Ans. 64

====

Provide the reported hemolysis at 1 h of each item.
Assay: Induction of hemolysis in mouse RBC cells at 2 to 32 microg/ml incubated for 60 mins by absorbance based analysis
Format: toxicity, cell-based, Erythrocyte
Conditions: red blood cells (erythrocytes), at 2 to 32 µg/mL, dose 2-32 µg/ml, read-out: Activity

Could you tell me hemolysis at 1 h for each of these compounds? They are listed below.
1. C=C1C[C@@]23CC[C@H]4[C@@](C)(CCC[C@@]4(C)C(=O)OCCCCC[n+]4c(C)cc(N)c5ccccc54)[C@@H]2CC[C@]1(O)C3.[I-]
2. C=C1C[C@@]23CC[C@H]4[C@@](C)(CCC[C@@]4(C)C(=O)OCCCc4c5[n+](cc6c(OC)c(OC)ccc46)CCc4cc6c(cc4-5)OCO6)[C@@H]2CC[C@]1(O)C3.[I-]
3. C=C1C[C@@]23CC[C@H]4[C@@](C)(CCC[C@@]4(C)C(=O)OCCC[P+](c4ccccc4)(c4ccccc4)c4ccccc4)[C@@H]2CC[C@]1(O)C3.[I-]
4. C=C1C[C@@]23CC[C@H]4[C@@](C)(CCC[C@@]4(C)C(=O)OCCCOc4ccc(C(=N)N)cc4)[C@@H]2CC[C@]1(O)C3
5. C=C1C[C@@]23CC[C@H]4[C@@](C)(CCC[C@@]4(C)C(=O)OCCCn4c(CC)[n+](C)c5ccccc54)[C@@H]2CC[C@]1(O)C3.[I-]
6. CCN(CC)c1ccc2c(-c3ccccc3C(=O)N3CCN(Cc4cn(CCCOc5ccc(C(=N)N)cc5)nn4)CC3)c3ccc(=[N+](CC)CC)cc-3oc2c1.[Cl-]

Ans.
< 2%
< 2%
5.9%
< 2%
< 2%
< 2%

====

Tested on: Candida albicans
Assay: Antifungal activity against clinical isolate Candida albicans YEM15 overexpressing efflux pump CdrL and Cdr2 assessed as inhibition of fungal growth measured after 24 hrs by CLSI based microtiter plate analysis
Type: functional
Assignment: determine reported MIC80 for the given compounds.
One number for each entry, in µg/mL.

{"columns": ["COMPOUND", "MIC80 (µg/mL)"],
 "data": [
  ["C=CCc1ccc(O)c(-c2ccc(OCCCOc3ccc(C(=N)N)cc3)c(CC=C)c2)c1", 8],
  ["Cc1ccc(Sc2ccccc2N2CCN(CCCOc3ccc(C(=N)N)cc3)CC2)c(C)c1", 4],
  ["CCOC(=O)C1=C(COCCNCCCOc2ccc(C(=N)N)cc2)NC(C)=C(C(=O)OC)C1c1ccccc1Cl (stereo not drawn)", 4],
  ["C[C@@]12CC[C@@H]3[C@](CC[C@H]4[C@@]3(C)CCC[C@@]4(C)C(=O)OCCCOc3ccc(C(=N)N)cc3)(CC1=O)C2", 4],
  ["CC/C(=C(/CC)c1ccc(OCCCOc2ccc(C(=N)N)cc2)cc1)c1ccc(O)cc1", 4]
]}

Dear colleague, could you send me MIC80 for each of the items below? Thanks.
1. C=CCc1ccc(OCCCOc2ccc(C(=N)N)cc2)c(-c2ccc(O)c(CC=C)c2)c1
2. C=C1C(=O)[C@@]2(C)CC[C@@H]3[C@@]1(CC[C@H]1[C@@]3(C)CCC[C@@]1(C)C(=O)OCCCOc1ccc(C(=N)N)cc1)C2
3. C=C1C(=O)[C@@]23CC[C@H]4[C@@](C)(CCC[C@@]4(C)C(=O)OCCCOc4ccc(C(=N)N)cc4)[C@@H]2CC[C@]1(O)C3

Ans.
8
1
4

====

Test: Selectivity ratio of IC50 for cytotoxicity against human HBE cells to MIC80 for antifungal activity against clinical isolate fluconazole-resistant Candida auris CBS12776
Format: toxicity, cell-based
VALUE_KIND: selectivity ratio
Give bare numbers.

Qu. Answer with the recorded selectivity ratio for the compound listed here: `C=C1C(=O)[C@@]2(C)CC[C@@H]3[C@@]1(CC[C@H]1[C@@]3(C)CCC[C@@]1(C)C(=O)OCCCOc1ccc(C(=N)N)cc1)C2`
Ans. 8

====

Experiment: Selectivity ratio of IC50 for cytotoxicity against human HBE cells to MIC80 for antifungal activity against clinical isolate fluconazole-resistant Candida albicans CA632
Format: toxicity, cell-based
VALUE_KIND: selectivity ratio
Numbers only.

Qu. Fill in selectivity ratio for record `C=C1C(=O)[C@@]2(C)CC[C@@H]3[C@@]1(CC[C@H]1[C@@]3(C)CCC[C@@]1(C)C(=O)OCCCOc1ccc(C(=N)N)cc1)C2`
Ans. 8

====

System: Candida tropicalis
Assay: Antifungal activity against clinical isolate fluconazole-resistant Candida tropicalis CT10 assessed as inhibition of fungal growth measured after 24 hrs by CLSI based microtiter plate analysis
Assay type: functional
For each record, write down the corresponding log10(MIC80).
Log10 applied to MIC80; unit prior to transform: µg/mL.

Previously resolved entries follow.
{"columns": ["COMPOUND", "log10(MIC80)"],
 "data": [
  ["C=CCc1ccc(OCCCOc2ccc(C(=N)N)cc2)c(-c2ccc(O)c(CC=C)c2)c1", 1.20],
  ["C[C@H]1[C@H](C)CC[C@]2(C(=O)OCCCOc3ccc(C(=N)N)cc3)CC[C@]3(C)C(=CC[C@@H]4[C@@]5(C)CC[C@H](O)C(C)(C)[C@@H]5CC[C@]43C)[C@H]12", 0.60],
  ["C[C@@]12CC[C@@H]3[C@](CC[C@H]4[C@@]3(C)CCC[C@@]4(C)C(=O)OCCCOc3ccc(C(=N)N)cc3)(CC1=O)C2", 0.60]
]}

For each listed entry, give its log10(MIC80).
1. C=C1C[C@@]23CC[C@H]4[C@@](C)(CCC[C@@]4(C)C(=O)OCCCOc4ccc(C(=N)N)cc4)[C@@H]2CC[C@]1(O)C3
2. C=C1C[C@@]2(CC)[C@@H](CC[C@@]2(O)c2cn(CCCOc3ccc(C(=N)N)cc3)nn2)[C@@H]2CCC3=CCCC[C@@H]3[C@@H]12
3. C=CCc1ccc(O)c(-c2ccc(OCCCOc3ccc(C(=N)N)cc3)c(CC=C)c2)c1
4. C=C1C(=O)[C@@]23CC[C@H]4[C@@](C)(CCC[C@@]4(C)C(=O)OCCCOc4ccc(C(=N)N)cc4)[C@@H]2CC[C@]1(O)C3
5. C[C@@H]1[C@H](O)[C@@H](C)/C=C/C=C/C=C/C=C/C=C/C=C/C=C/[C@H](O[C@@H]2O[C@H](C)[C@@H](O)[C@H](N)[C@@H]2O)C[C@@H]2O[C@](O)(C[C@@H](O)C[C@@H](O)[C@H](O)CC[C@@H](O)C[C@@H](O)CC(=O)O[C@H]1C)C[C@H](O)[C@H]2C(=O)O
6. CCOC(=O)C1=C(COCCNCCCOc2ccc(C(=N)N)cc2)NC(C)=C(C(=O)OC)C1c1ccccc1Cl (centres undefined)
7. Cc1ccc(Sc2ccccc2N2CCN(CCCOc3ccc(C(=N)N)cc3)CC2)c(C)c1
8. CC/C(=C(/CC)c1ccc(OCCCOc2ccc(C(=N)N)cc2)cc1)c1ccc(O)cc1

Ans.
0.90
1.81
1.20
0.60
0.30
0.60
0.60
0.60

Hello, I would appreciate it if you could give log10(MIC80) for each entry below.
1. C=C1C(=O)[C@@]2(C)CC[C@@H]3[C@@]1(CC[C@H]1[C@@]3(C)CCC[C@@]1(C)C(=O)OCCCOc1ccc(C(=N)N)cc1)C2
2. N=C(N)c1ccc(OCCCN2CCC(=C3c4ccc(Cl)cc4CCc4cccnc43)CC2)cc1

Ans.
1. 0.30
2. 1.51
